System: Setaria viridis (SETVI)
Assay: Pre-emergence herbicidal action against SETVI
Type: in vivo
Settings: dosage 320 g/ha
Source text: Seeds of monocotyledonous and dicotyledonous weed plants and crop plants are placed in plastic or organic planting pots and covered with soil. […] After about 3 weeks, the effect of the preparations is scored visually in comparison with untreated controls as percentages. […]
For each entry below, report its Pre-emergence action against SETVI in % value.
Write the answer as a number in %, unit excluded.

Request: Consider the molecule COC(=O)COc1nn(-c2ncccc2Cl)c(-c2ccc(F)nc2)c1Br and give its measured Pre-emergence action against SETVI in %.
Result: 100

Request: What Pre-emergence action against SETVI in % value was documented for this molecule, COC(=O)[C@@H](C)Oc1nn(-c2nc(F)ccc2F)c(-c2cncc(F)c2)c1C1CC1 ?
Result: 100

Request: Fill in the blank: the reported Pre-emergence action against SETVI in % of COCCOC(=O)COc1nn(-c2cccc(C)n2)c(-c2ccc(F)nc2)c1Br is ____.
Result: 80

Request: Which Pre-emergence action against SETVI in % value belongs to COC(=O)CNC(=O)[C@@H](C)Oc1nn(-c2ccccn2)c(-c2ccc(F)nc2)c1Cl ?
Result: 100

====

Tested on: Zea mays (ZEAMX)
Format: in vivo
Conditions: 20 g/ha, ZEAMX, effect in comparison to untreated controls
Description: Seeds of monocotyledonous and dicotyledonous weeds and crop plants are placed in sandy loam in plastic or organic planting pots, covered with soil and cultivated in a greenhouse under controlled growth conditions. 2 to 3 weeks after sowing, the test plants are treated at the one-leaf stage. […]
measured metric: Post-emergence action against ZEAMX in % (crop plant compatibility) (%)
Numeric answer only, unit % assumed.

Request: Endpoint output: Post-emergence action against ZEAMX in % (crop plant compatibility) of O=C(COc1nn(-c2ncccc2F)c(-c2ccc(F)nc2)c1C1CC1)OCC1CCCC1 . Value?
Result: 20

Request: Field request: Post-emergence action against ZEAMX in % (crop plant compatibility) | item: COCCOC(=O)COc1nn(-c2ncccc2F)c(-c2ccc(F)nc2)c1C1CC1
Result: 0

Request: Please report the recorded Post-emergence action against ZEAMX in % (crop plant compatibility) for COC(=O)CCOC(=O)COc1nn(-c2cccnc2C)c(-c2cncc(F)c2)c1Br .
Result: 0

Request: Dear colleague, I am looking for the recorded Post-emergence action against ZEAMX in % (crop plant compatibility) of the following molecule: O=C(COc1nn(-c2ccccn2)c(-c2ccc(F)nc2)c1Cl)NS(=O)(=O)CC(F)(F)F
Result: 10

Request: Which Post-emergence action against ZEAMX in % (crop plant compatibility) value belongs to C[C@@H](Oc1nn(-c2ncccc2F)c(-c2ccc(F)nc2)c1Br)C(=O)OCc1ccccn1 ?
Result: 0

Request: Any idea what its Post-emergence action against ZEAMX in % (crop plant compatibility) is? The molecule is CN(C)S(=O)(=O)NC(=O)COc1nn(-c2ncccc2F)c(-c2ccc(F)nc2)c1Br
Result: 20

Request: Quick check: Post-emergence action against ZEAMX in % (crop plant compatibility) of C[C@@H](Oc1nn(-c2ncccc2F)c(-c2ccc(F)nc2)c1Br)C(=O)O ?
Result: 0

Request: // query Post-emergence action against ZEAMX in % (crop plant compatibility) value for entry O=C(O)COc1nn(-c2ccccn2)c(-c2ccc(F)nc2)c1C(F)(F)F
Result: 0

Request: So what's the measured Post-emergence action against ZEAMX in % (crop plant compatibility) for this one? COC(=O)[C@H](C)COC(=O)[C@@H](C)Oc1nn(-c2ccccn2)c(-c2ccc(F)nc2)c1Cl
Result: 0

Request: Could you tell me which Post-emergence action against ZEAMX in % (crop plant compatibility) is on file for CCOC(=O)[C@@H](C)Oc1nn(-c2ccccn2)c(-c2ccc(F)nc2)c1Br ?
Result: 20

Request: State the recorded Post-emergence action against ZEAMX in % (crop plant compatibility) for this entry: CCOC(=O)C1CCN(C(=O)COc2nn(-c3ccccn3)c(-c3ccc(F)nc3)c2Br)CC1
Result: 0

Request: Given CCOC(=O)C(C)Oc1nn(-c2ccccn2)c(-c2ccc(F)nc2)c1C(F)(F)F (stereo not drawn) , state its recorded Post-emergence action against ZEAMX in % (crop plant compatibility).
Result: 20

Request: Suppose we examine the molecule COC(=O)C(C)OC(=O)C(C)Oc1nn(-c2ccccn2)c(-c2ccc(F)nc2)c1Cl (stereo not drawn) ; what Post-emergence action against ZEAMX in % (crop plant compatibility) value has been reported?
Result: 0

Request: Quick one: Post-emergence action against ZEAMX in % (crop plant compatibility) for O=C(COc1nn(-c2ccccn2)c(-c2ccc(F)nc2)c1Br)OCC1CCOC1 (stereo not drawn) ?
Result: 0

Request: Need Post-emergence action against ZEAMX in % (crop plant compatibility), item COC(=O)COc1nn(-c2ncccc2F)c(-c2cncc(F)c2)c1Br [Example I-49]
Result: 0

Request: Request the reported Post-emergence action against ZEAMX in % (crop plant compatibility) associated with COC(=O)[C@H](C)COC(=O)COc1nn(-c2ccnc(Cl)c2)c(-c2ccc(F)nc2)c1Br
Result: 20

Request: Return reported Post-emergence action against ZEAMX in % (crop plant compatibility); argument: COC(=O)CCOC(=O)COc1nn(-c2ccnc(Cl)c2)c(-c2ccc(F)nc2)c1Br
Result: 0

Request: What Post-emergence action against ZEAMX in % (crop plant compatibility) value was documented for this molecule, N#CCOC(=O)COc1nn(-c2ncccc2F)c(-c2ccc(F)nc2)c1Br ?
Result: 20

Request: Would you mind telling me what Post-emergence action against ZEAMX in % (crop plant compatibility) value was observed for O=C(COc1nn(-c2ncccc2F)c(-c2ccc(F)nc2)c1C1CC1)OCC1COC1 ?
Result: 10

Request: GET /values?readout=Post-emergence action against ZEAMX in % (crop plant compatibility)&item= CCOC(=O)COc1nn(-c2ncccc2F)c(-c2ccc(F)nc2)c1I
Result: 0

Request: Quick check: Post-emergence action against ZEAMX in % (crop plant compatibility) of O=C(O)COc1nn(-c2ncccc2F)c(-c2ccnc(F)c2)c1Br ?
Result: 0

Request: For COC(=O)CCOC(=O)[C@@H](C)Oc1nn(-c2ccccn2)c(-c2ccc(F)nc2)c1Br , what is its reported Post-emergence action against ZEAMX in % (crop plant compatibility)?
Result: 0

Request: Any idea what its Post-emergence action against ZEAMX in % (crop plant compatibility) is? The molecule is O=C(O)COc1nn(-c2ccccn2)c(-c2ccnc(F)c2)c1Br
Result: 0

Request: Quick one: Post-emergence action against ZEAMX in % (crop plant compatibility) for COC(=O)[C@@H](C)Oc1nn(-c2ncccc2F)c(-c2ccnc(F)c2)c1I ?
Result: 20

Request: Name the reported Post-emergence action against ZEAMX in % (crop plant compatibility) value associated with the molecule O=C(COc1nn(-c2ncccc2F)c(-c2ccc(F)nc2)c1C1CC1)OCC(F)(F)F
Result: 0

Request: Please give the measured Post-emergence action against ZEAMX in % (crop plant compatibility) for this molecule: COC(=O)COc1nn(-c2cccnc2C)c(-c2cncc(F)c2)c1Cl
Result: 0

Request: Reported Post-emergence action against ZEAMX in % (crop plant compatibility) for COC(=O)[C@H](C)NC(=O)COc1nn(-c2ccnc(Cl)c2)c(-c2ccc(F)nc2)c1Br : what is it?
Result: 0

Request: I have this molecule here, COC(=O)[C@H](C)COC(=O)COc1nn(-c2ccccn2)c(-c2cncc(F)c2)c1Cl , and I need its recorded Post-emergence action against ZEAMX in % (crop plant compatibility).
Result: 10

Request: I would be grateful if you could share the reported Post-emergence action against ZEAMX in % (crop plant compatibility) for COC(=O)[C@@H](C)Oc1nn(-c2ccccn2)c(-c2ccnc(F)c2)c1Cl .
Result: 0

Request: Quick one: Post-emergence action against ZEAMX in % (crop plant compatibility) for COCCOC(=O)COc1nn(-c2cccnc2C)c(-c2cncc(F)c2)c1Br ?
Result: 0

Request: What does the record list as Post-emergence action against ZEAMX in % (crop plant compatibility) for CCOC(=O)COc1nn(-c2ncccc2F)c(-c2ccnc(F)c2)c1Br ?
Result: 10

Request: Given the entry COC(=O)C(C)COC(=O)COc1nn(-c2ncccc2C(F)(F)F)c(-c2ccc(F)nc2)c1C1CC1(F)F (stereo not drawn) , report its measured Post-emergence action against ZEAMX in % (crop plant compatibility).
Result: 0

Request: Fill in the blank: the reported Post-emergence action against ZEAMX in % (crop plant compatibility) of COC(=O)[C@@H](C)Oc1nn(-c2ncccc2F)c(-c2ccnc(F)c2)c1Br is ____.
Result: 10

====

Tested on: Oryza sativa (ORYSA)
Format: in vivo
Conditions: crop plant compatibility, 80 g/ha, effect in comparison to untreated controls
Give Post-emergence action against ORYSA in % for every item shown.
Report only the number, with the unit % understood.

Request: Please look up its Post-emergence action against ORYSA in %: COC(=O)[C@@H](C)Oc1nn(-c2ccccn2)c(-c2ccc(Cl)nc2)c1Cl [Example I-237]
Result: 0

Request: Which value of Post-emergence action against ORYSA in % has been reported for CCOC(=O)COc1nn(-c2ccncc2F)c(-c2ccc(F)nc2)c1Br [III-29] in the records?
Result: 20

Request: Value lookup for Post-emergence action against ORYSA in %; key = CCOC(=O)C(C)Oc1nn(-c2ccccn2)c(-c2ccc(F)nc2)c1Br (centres unmarked) [Example I-102]
Result: 0

Request: Need Post-emergence action against ORYSA in % of COC(=O)[C@@H](C)COC(=O)COc1nn(-c2ccccn2)c(-c2cncc(F)c2)c1Br [Example I-194] , thanks.
Result: 20

Request: Which measured Post-emergence action against ORYSA in % value corresponds to O=C(O)C1CCN(C(=O)COc2nn(-c3ccccn3)c(-c3cncc(F)c3)c2Br)C1 (racemic) [Example I-63] ?
Result: 0

Request: # get_value(readout='Post-emergence action against ORYSA in %', item= O=C(O)CSc1nn(-c2ccccn2)c(-c2cncc(F)c2)c1I [Example I-229] )
Result: 0

Request: For O=C(O)COc1nn(-c2ccccn2)c(-c2cncc(F)c2)c1C1CC1 [Example I-72] , what is its reported Post-emergence action against ORYSA in %?
Result: 20

Request: Fill in the blank: the reported Post-emergence action against ORYSA in % of CCOC(=O)CCNC(=O)COc1nn(-c2ncccc2F)c(-c2ccc(OC)nc2)c1Br [Example I-47] is ____.
Result: 20

Request: Any idea what its Post-emergence action against ORYSA in % is? The compound is COC(=O)C(C)OC(=O)C(C)Oc1nn(-c2ccccn2)c(-c2ccc(F)nc2)c1Cl (centres unmarked) [Example I-299]
Result: 20

Request: What measured Post-emergence action against ORYSA in % goes with COC(=O)[C@@H](C)Oc1nn(-c2ncccc2F)c(-c2cccnc2)c1C#N [Example I-04] ?
Result: 0

Request: Any idea what its Post-emergence action against ORYSA in % is? The compound is COC(=O)CNC(=O)COc1nn(-c2ccccn2)c(-c2ccc(F)nc2)c1F [Example I-377]
Result: 0

Request: Fill blank: measured Post-emergence action against ORYSA in % of the compound CC(NC(=O)[C@@H](C)Oc1nn(-c2ccccn2)c(-c2ccc(F)nc2)c1Cl)C(=O)O (some centres unmarked) [Example I-350] is ____.
Result: 0

Request: Fill in: Post-emergence action against ORYSA in % of CCOC(=O)C(C)Oc1nn(-c2ccccn2)c(-c2ccc(F)nc2)c1I (centres unmarked) [Example I-101] is ___
Result: 10

Request: For the compound CCOC(=O)CSc1nn(-c2ccccn2)c(-c2cncc(F)c2)c1I [Example I-152] , what Post-emergence action against ORYSA in % is on record?
Result: 0

Request: Which Post-emergence action against ORYSA in % is listed for O=C(COc1nn(-c2ncccc2F)c(-c2ccc(F)nc2)c1C1CC1)OCc1ccccc1 [Example I-287] ?
Result: 20

Request: Which Post-emergence action against ORYSA in % is reported for this compound? C[C@H](NC(=O)COc1nn(-c2ccnc(F)c2)c(-c2ccc(F)nc2)c1Br)C(=O)O [III-25]
Result: 0

Request: Item O=C(COc1nn(-c2ccnc(Cl)c2)c(-c2ccc(F)nc2)c1Br)NS(=O)(=O)CC(F)(F)F [III-20] has what recorded Post-emergence action against ORYSA in %?
Result: 0
